# Test system: HL-60 cells
# procedure.text: cells
# measurement.context: Homo sapiens, HL-60, 72 h, read-out: IC50 toxicity HL-60
property.label: pIC50
pIC50 is a log-scale quantity: -log10 of the concentration expressed in molar.

For the compound Cc1c(C(=O)c2cccc3ccccc23)c2cccc3c2n1C(CN1CCOCC1)CO3 (stereo not shown) [WIN-55212-2, reference compound] , report pIC50. 5.86

###

# System: HL-60 cells
# procedure.text: cells
# measurement.context: read-out: IC50 toxicity HL-60; MTT, 72 h, 0.001 μM to 10 μM
# Procedure: HEK293, U87MG, and HL-60 cell lines were seeded in a flat-bottom 96-well plate at a density of 10,000 cells per well. […] Formazan absorbance of each well was measured using the EPOCH microplate reader (Biotek, Winooski, VT, USA) at a wavelength of 570 nm. […] Cell viability: ([MTT - (3-(4,5-dimethylthiazol-2-yl)-2,5-diphenyltetrazolium bromide) - formazan] HEK293, U87MG, and HL-60 cells were first quantified to determine the exact number to be used in […] determined IC50. […]
property.label: IC50

For the molecule COc1ccc(C(=O)c2c(C)n(CCN3CCOCC3)c3cc(I)ccc23)cc1 [AM630, reference compound] , report IC50. > 10 µM
